Reference source: patent US20240132624A1

targetUnderTest: T1, cyno FcRn/b2M (cyno, UniProt Q8SPV9 24-297; Q8SPW0 21-119, biotinylated)
T1 construct: bought recombinant biotinylated protein (Immunitrack ITF05 or ACRO FCM-C82W5); also called cFcRn; cFcRn/cb2M
T1 sequence (Q8SPV9 24-297 limits assumed, chain 1 of 2): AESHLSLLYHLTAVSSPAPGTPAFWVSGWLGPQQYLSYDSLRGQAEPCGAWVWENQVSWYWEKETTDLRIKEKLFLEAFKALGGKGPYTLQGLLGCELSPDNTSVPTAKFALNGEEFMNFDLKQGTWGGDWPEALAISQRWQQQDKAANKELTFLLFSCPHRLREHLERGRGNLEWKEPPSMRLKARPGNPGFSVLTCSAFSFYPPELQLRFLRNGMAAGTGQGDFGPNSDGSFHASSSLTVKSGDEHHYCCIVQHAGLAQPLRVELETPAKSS
T1 sequence (Q8SPW0 21-119 limits assumed, chain 2 of 2): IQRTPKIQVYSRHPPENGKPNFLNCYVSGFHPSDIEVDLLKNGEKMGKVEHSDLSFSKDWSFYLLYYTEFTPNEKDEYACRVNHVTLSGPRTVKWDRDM
methodNotes: SPR off-rate; pH 7.4 vs pH 6.0;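 also: surface plasmon resonance with diluted periplasmic extracts flowed over ligand surfaces, 120 s association and 600–3600 s dissociation at 25 °C, running buffer containing 150 mM NaCl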
quantityMeasured: kd ratio pH 7.4/6.0

{"binder": "T0263018B11 W100cY (VHH, name in Kabat numbering, FLAG3-His6 tagged) VHH: EVQLVESGGGVVQPGGSLRLSCAASGFTFSSYAMYWVRQAPGKGLEWVSAISSGGGSTDYADSVKGRFTISRDNSKNTLYLQMNSLRPEDTALYYCAADTLYTSLTYYSYWGQGTLVTVSS", "kd ratio pH 7.4/6.0": 50}
{"binder": "T0263018B11 S56H (VHH, name in Kabat numbering, FLAG3-His6 tagged) VHH: EVQLVESGGGVVQPGGSLRLSCAASGFTFSSYAMYWVRQAPGKGLEWVSAISSGGGHTDYADSVKGRFTISRDNSKNTLYLQMNSLRPEDTALYYCAADTLYTSLTWYSYWGQGTLVTVSS", "kd ratio pH 7.4/6.0": 36}
{"binder": "T0263018B11 S100K (VHH, name in Kabat numbering, FLAG3-His6 tagged) VHH: EVQLVESGGGVVQPGGSLRLSCAASGFTFSSYAMYWVRQAPGKGLEWVSAISSGGGSTDYADSVKGRFTISRDNSKNTLYLQMNSLRPEDTALYYCAADTLYTKLTWYSYWGQGTLVTVSS", "kd ratio pH 7.4/6.0": 69}
{"binder": "T0263018B11 S52aT (VHH, name in Kabat numbering, FLAG3-His6 tagged) VHH: EVQLVESGGGVVQPGGSLRLSCAASGFTFSSYAMYWVRQAPGKGLEWVSAISTGGGSTDYADSVKGRFTISRDNSKNTLYLQMNSLRPEDTALYYCAADTLYTSLTWYSYWGQGTLVTVSS", "kd ratio pH 7.4/6.0": 49}
